Test: Biodistribution in PC-3 tumor-bearing CB17-SCID mice
Type: in vivo
Details: mouse, blood, intravenous, 100 pmol, ^177Lu-labeled; 24 h p.i.; 100 pmol; n = 4; read-out: Uptake in Blood
Method: To establish tumor xenografts, PC-3 cells (5.0 × 10^6 cells per 200 µL) were suspended in a 1/1 mixture (v/v) of Dulbecco’s modified eagle's medium/Ham’s F-12 with Glutamax-I (v/v = 1/1) and Cultrex® Basement Membrane Matrix Type 3 (Trevigen Inc., Gaithersburg, MD, USA) and inoculated subcutaneously onto the right shoulder of CB17-SCID mice (Charles River Laboratories International Inc., Sulzfeld, Germany). […] Biodistribution. […] Selected organs were removed, weighted and measured in a γ-counter.
Starred links: 1 amine or outer side, 2 acyl side, 3 side chain; linkers in the order of their positions; H or OH if unused. Non-standard residues stand in square brackets, D forms with d. Residues, ends and D or L forms follow the SMILES beside them. *: point of attachment. DOTA = O=C(O)CN1CCN(CC(=O)O)CCN(CC(=O)*)CCN(CC(=O)O)CC1; Sta = CC(C)C[C@H](N)[C@@H](O)CC(=O)O; Bta = N[C@@H](Cc1csc2ccccc12)C(=O)O; X1 = O=C(CN1CCC(N[*:1])CC1)[*:2]; hSer = N[C@@H](CCO)C(=O)O
Listing of recorded tissue uptake at 24 h by entry.
The figure you give is taken to be in %ID/g; do not add the unit.

molecule | tissue uptake at 24 h [%ID/g]
CC(C)C[C@H](NC(=O)C[C@H](O)[C@H](CC(C)C)NC(=O)[C@H](Cc1c[nH]cn1)NC(=O)CNC(=O)[C@@H](NC(=O)[C@H](C)NC(=O)[C@H](Cc1csc2ccccc12)NC(=O)[C@H](CCC(N)=O)NC(=O)[C@@H](Cc1ccccc1)NC(=O)CN1CCC(NC(=O)CN2CCN(CC(=O)O)CCN(CC(=O)O)CCN(CC(=O)O)CC2)CC1)C(C)C)C(N)=O [[^177Lu]Lu-[Bta^8]RM2, metal not drawn] ({DOTA}-[X1][dF]Q[Bta]AVGH[Sta]L-NH2) | 0.04

// below: tissue uptake at 24 h requested for another molecule
Recorded tissue uptake at 24 h (molecule CC(C)C[C@H](NC(=O)C[C@H](O)[C@H](CC(C)C)NC(=O)[C@H](Cc1c[nH]cn1)NC(=O)CNC(=O)[C@@H](NC(=O)[C@H](C)NC(=O)[C@H](Cc1c[nH]c2ccccc12)NC(=O)[C@H](CCO)NC(=O)[C@@H](Cc1ccccc1)NC(=O)CN1CCC(NC(=O)CN2CCN(CC(=O)O)CCN(CC(=O)O)CCN(CC(=O)O)CC2)CC1)C(C)C)C(N)=O [[^177Lu]Lu-[Hse^7]RM2, metal not drawn] ({DOTA}-[X1][dF][hSer]WAVGH[Sta]L-NH2) ): 0.02
